biological target: PfRH5 of Plasmodium falciparum strain FCR-1/FVO (on live parasites) (Plasmodium falciparum); test: cell-based or functional assay
Readings of Max growth inhibition (%) FCR-1/FVO for the listed binders
PROPERTY LABEL: Max growth inhibition (%) FCR-1/FVO

INSERT INTO assay_data (binder, uom, observed) VALUES
  ('H1H29127P (antibody, V domains shown) VH: QVQLVESGGGVVQPGRSLRLSCAASGFTFSSYGMHWVRQAPGKGLEWVAAIWYDGSNKYYADSVKGRFTISRDNSKNTLYLQMNSLRAEDTAVYFCARGEHYYGSGPFDPWGQGTLVTVSS VL: DIQMTQSPSSLSASVGDRVTITCRASQSISNYLNWYQQKPGKAPKLLIFAASSLQSGVPSRFSGSGSGTDFTLTISSLQPEDFATYYCQQSYSSPLTFGGGTKVEIKR', '%', 61.1),
  ('H1H29104P (antibody, V domains shown) VH: EVQLVESGGGLVQPGRSLRLSCAASGFRFDDYAMHWVRQAPGKGLEWVSGINWNSGGKGYADSVQGRFTISRDNAKNSLYLQMNSLRTEDTALYYCAKDRGIAARLLSRDAFDMWGQGTMVTVSS VL: DIQLTQSPSFLSASVGDRVTITCWASQDVSSYLAWYQQKPGKSPKLLIFAASTLQGGIPSRFSGSGSGTEFTLTISSLRPEDFATYYCQHLNTYPYTFGQGTKLEIKR', '%', 67.4),
  ('H1H29125P (antibody, V domains shown) VH: QVQLVESGGGVVQPGRSLRLSCAASGFTFSSYGMHWVRQAPGKGLEWMAVISYDGSNKYYADSVKGRFTISRDNSKNTLFLQMNSLRPEDTAVYYCAQDGSSAIYYFYGMDVWGQGTTVTVSS VL: DIQMTQSPSSLSASIGDRVTITCRASQDINNYLAWFQQKPGKAPKSLIYAASSLQSGVPSKFSGSGSGTDFTLTISSLQPEDFATYYCLQYNSYHPTFGQGTKLEIKR', '%', 67.6),
  ('H1H29089P (antibody, V domains shown) VH: EVQLVQSGAEVKKPGESLKISCKGSGYSFTSYWIVWVRQMPGKGLEWMGIIYPGDSDTRYSPSFQGQVTISADKSISTAYLQWSSLKASDTAMYYCARQDITGTTGFDYWGQGTLVTVSS VL: DIQMTQSPSSLSASVGDRVTITCRASQSIRNYLNWYQQKPGKAPKLLIYAASSLQSGVPSRFSGSGSGTDFTLTISSLQPEDFATYFCQQSYSTPFTFGPGTKVDIKR', '%', 66),
  ('H1H29100P (antibody, V domains shown) VH: QLQLQESGPGLVKPSETLSLTCTVSGGSISSSSYYWGWIRQPPGKGLEWIGIIYYSGSTYYNPSLKSRVTISVDTSKNQFSLKLSSVTAADTAVYYCARQDREALFDYWGQGTLVTVSS VL: EIVLTQSPDFQSVTPKEKVTITCRASQRIGSSLHWYQQKPDQSPKLLIKYASQSFSGVPSRFSGSGSGTDFTLTINSLEAEDAATYYCHQSSTLPTFGQGTRLEIKR', '%', 66.9),
  ('H1H29138P (antibody, V domains shown) VH: QVQLVESGGGVVQPGRSLRLSCAASGFTFSTYGMHWVRQAPGKGLEWVAVIWYDGTNKYYADSVKGRFTISRDNSKNTLYLQMISLRAEDTAVYYCARDPSGGDHYYYYGMDVWGQGTTVTVSS VL: DIQMTQSPSSLSASVGDRITITCQASQDISNYLNWYQQKPGKAPNLLISDASDLETGVPSRFSGSGSGTDFTFTISSLQPEDFATYYCQQYDNIPITFGQGTRLEIKR', '%', 84.1),
  ('H1H29109P (antibody, V domains shown) VH: EVQLVESGGGLVQPGRSLRLSCAVSGFTFDDYAMHWVRQAPGKGLEWVSGISWNSGDIDYADSVKGRFTISRDNAKNSLYLQMNSLRAEDTALYYCAKDTLSGTGTTWYYFDYWGQGTLVTVSS VL: DIQLTQSPSFLSASVGDRVTITCWASQGISSYLIWYQQKPGKAPKLLIYAASTLQSGVPSRFSGSGSGTEFTLTISSLQPEDFATYYCQQVNSYPLTFGGGTKVEIKR', '%', 56.7);
